Test: in vivo
Parameters: species or system sprague dowley rats
Details: Sprague-Dawley, rat
parameterMeasured: bioavailability

(Q) Entry `CC[C@@H]1C[C@]1(NC(=O)[C@@H]1C[C@@]2(CN1C(=O)[C@@H](NC(=O)[C@@H](NC(=O)[C@@H]1CCCCN1C(C)C)C1CCCCC1)C(C)(C)C)C(C)(C)C21CCC1)C(=O)NS(=O)(=O)N1CCCC1` needs its bioavailability filled in; supply it.
(A) 80 to 95%

* * *

Assay: physchem
Conditions: aqueous buffer, Compound 34 solubility
parameterMeasured: solubility (µg/mL)
Entry rule: numbers only, all in µg/mL.

(Q) Entry CC[C@@H]1C[C@]1(NC(=O)[C@@H]1C[C@@]2(CN1C(=O)[C@@H](NC(=O)[C@@H](NC(=O)[C@@H]1CCCCN1C(C)C)C1CCCCC1)C(C)(C)C)C(C)(C)C21CCC1)C(=O)NS(=O)(=O)N1CCCC1 [Compound 34] needs its solubility filled in; supply it.
(A) 30

These entries and their values trace back to patent US9011833B2.
